# target-under-test: UniProtKB P0DMS8
# Sequence (P0DMS8 whole entry): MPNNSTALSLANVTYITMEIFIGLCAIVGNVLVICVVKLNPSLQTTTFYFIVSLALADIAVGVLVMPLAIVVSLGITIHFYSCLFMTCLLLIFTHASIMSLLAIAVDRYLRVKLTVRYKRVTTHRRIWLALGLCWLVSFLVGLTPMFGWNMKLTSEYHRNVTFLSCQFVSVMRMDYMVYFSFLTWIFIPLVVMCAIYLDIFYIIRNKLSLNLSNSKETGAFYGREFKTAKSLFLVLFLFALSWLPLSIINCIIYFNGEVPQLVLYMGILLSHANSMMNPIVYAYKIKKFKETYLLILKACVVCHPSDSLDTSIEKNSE
// AC50 lookup, one value per entry

compound | AC50
NCC(CC(=O)O)c1ccc(Cl)cc1 (stereo not given) | 4.2 µM
CN(C)CCC=C1c2ccccc2C(C)(C)c2ccccc21 | > 30 µM
O=C(O)C1=C(CSc2nnnn2CS(=O)(=O)O)CS[C@@H]2[C@H](NC(=O)[C@H](O)c3ccccc3)C(=O)N12 | > 30 µM
Cc1cccc(C(C)c2cnc[nH]2)c1C (stereo not given) | > 30 µM
CN(C)CCC(c1ccc(Cl)cc1)c1ccccn1 (stereo not given) | > 30 µM
CN(C)CCC=C1c2ccccc2C=Cc2ccccc21 | > 30 µM
Cc1nnc2n1-c1ccc(Cl)cc1C(c1ccccc1Cl)=NC2 | > 30 µM
Cc1cn([C@H]2C=C[C@@H](CO)O2)c(=O)[nH]c1=O | > 30 µM
C[C@H](N)[C@H](O)c1cccc(O)c1 | > 10 µM
CNS(=O)(=O)Cc1ccc2[nH]cc(CCN(C)C)c2c1 | > 30 µM
CNC(C)CCC=C(C)C (stereo not given) | > 30 µM
O=C1Nc2ccc(Cl)cc2[C@@](C#CC2CC2)(C(F)(F)F)O1 | 6 µM
CCCN1C[C@H](CSC)C[C@@H]2c3cccc4[nH]cc(c34)C[C@H]21 [PERGOLIDE] | > 30 µM
NS(=O)(=O)Cc1noc2ccccc12 [ZONISAMIDE] | > 10 µM
CCOC(=O)[C@H](CCc1ccccc1)N[C@@H](C)C(=O)N1[C@H](C(=O)O)C[C@@H]2CCC[C@@H]21 | > 30 µM
Cc1cn([C@H]2C[C@H](N=[N+]=[N-])[C@@H](CO)O2)c(=O)[nH]c1=O | > 30 µM
O=C(NCCNCC(O)COc1ccc(O)cc1)N1CCOCC1 (stereo not given) | > 30 µM
Nc1nc(NC2CC2)c2ncn([C@H]3C=C[C@@H](CO)C3)c2n1 | > 30 µM
CN(C)CCc1c[nH]c2ccc(C[C@H]3COC(=O)N3)cc12 | > 30 µM
C[C@H]1CNCCc2ccc(Cl)cc21 | > 30 µM
COc1ccccc1N1CCN(CC(O)COc2cccc3ccccc23)CC1 (stereo not given) | > 30 µM
COc1ccc(C(=O)Nc2ccccc2CCC2CCCCN2C)cc1 (stereo not given) [ENCAINIDE] | > 30 µM
OC(CNCC(O)C1CCc2cc(F)ccc2O1)C1CCc2cc(F)ccc2O1 (stereo not given) | 19 µM
Cn1c(=O)c2c(ncn2CC2OCCO2)n(C)c1=O | > 30 µM
CC[C@H]1[C@@H](O)[C@@H]2[C@H](CC[C@]3(C)[C@@H]([C@H](C)CCC(=O)O)CC[C@@H]23)[C@@]2(C)CC[C@@H](O)C[C@@H]12 | 23 µM

* * *

# target-under-test: D(3) dopamine receptor (Homo sapiens, UniProt P35462); further: assay procedure not described here
# Sequence (P35462 whole entry): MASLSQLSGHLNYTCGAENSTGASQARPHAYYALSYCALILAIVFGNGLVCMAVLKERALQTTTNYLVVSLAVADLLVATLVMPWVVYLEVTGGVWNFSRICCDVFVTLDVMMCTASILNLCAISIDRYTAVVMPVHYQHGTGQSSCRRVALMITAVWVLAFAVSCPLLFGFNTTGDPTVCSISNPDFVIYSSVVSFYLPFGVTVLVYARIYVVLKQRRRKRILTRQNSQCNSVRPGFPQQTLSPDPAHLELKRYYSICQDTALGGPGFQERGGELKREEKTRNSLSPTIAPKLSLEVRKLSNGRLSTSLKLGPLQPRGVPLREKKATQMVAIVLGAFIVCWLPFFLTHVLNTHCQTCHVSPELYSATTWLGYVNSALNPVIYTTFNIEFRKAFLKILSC
quantity-kind: AC50

compound | measurement
Oc1ccccc1 [PHENOL] | > 30 µM
CC(=O)N[C@@H]1[C@@H](O)[C@H](O)[C@@H](CO)O[C@H]1O [N-ACETYLGLUCOSAMINE] | > 30 µM
Clc1cc(Cl)c(OCC#CI)cc1Cl [HALOPROGIN] | 1.16 µM
CCCC1O[C@@H]2C[C@H]3[C@@H]4CCC5=CC(=O)C=C[C@]5(C)[C@H]4[C@@H](O)C[C@]3(C)[C@]2(C(=O)CO)O1 (stereo partly drawn) [BUDESONIDE] | > 30 µM
NCC(CC(=O)O)c1ccc(Cl)cc1 (stereo not drawn) [BACLOFEN] | 14.7 µM
NC1=NCC2c3ccccc3Cc3ccccc3N12 (stereo not drawn) [EPINASTINE] | > 30 µM
CN(C)CCN1C(=O)c2ccccc2N(C)c2ccccc21 [DIBENZEPIN] | 16.3 µM
C[S+](CC[C@H](N)C(=O)[O-])C[C@H]1O[C@@H](n2cnc3c(N)ncnc32)[C@H](O)[C@@H]1O (stereo partly drawn) [ADEMETIONINE] | > 30 µM
CC(C)Nc1ncccn1 [ISAXONINE] | > 30 µM
CN(C)[C@@H](c1cccc(O)c1)[C@H]1CCCC[C@H]1O [CIRAMADOL] | > 30 µM
O=[N+]([O-])c1cn2c(n1)OC[C@@H](OCc1ccc(OC(F)(F)F)cc1)C2 [PRETOMANID] | > 30 µM
CCOC(=O)[C@H](CCc1ccccc1)N[C@@H](C)C(=O)N1[C@H](C(=O)O)C[C@H]2CCCC[C@@H]21 [TRANDOLAPRIL] | > 30 µM
OCCN1C[C@H](O)[C@@H](O)[C@H](O)[C@H]1CO [MIGLITOL] | > 30 µM
CC(=O)Oc1ccc2c(c1)CC[C@@H]1[C@@H]2CC[C@]2(C)[C@@H](O)CC[C@@H]12 [ESTRADIOL ACETATE] | > 30 µM
C=C[C@H]1C[N@@]2CC[C@H]1C[C@H]2[C@H](O)c1ccnc2ccc(OC)cc12 [QUININE] | > 30 µM
CCOC(=O)[C@H](CCc1ccccc1)N[C@@H](C)C(=O)N1CC2(C[C@H]1C(=O)O)SCCS2 | > 30 µM
N[C@H]1C(O)O[C@H](CO)[C@@H](O)[C@@H]1O (stereo partly drawn) [GLUCOSAMINE] | > 30 µM
CC(=O)Oc1c(C)c(C)c2c(c1C)CC[C@@](C)(CCC[C@H](C)CCC[C@H](C)CCCC(C)C)O2 | > 30 µM

* * *

For reference, AC50 measured on Vasopressin V1a receptor (Homo sapiens):

molecule | AC50
O=C1C(O)=C([C@H]2CC[C@H](c3ccc(Cl)cc3)CC2)C(=O)c2ccccc21 | > 30 µM
CC(C)=CCC/C(C)=C/C=C/C(C)=C/C=C/C(C)=C/C=C/C=C(C)/C=C/C=C(C)/C=C/C=C(\C)CCC=C(C)C | > 30 µM
CCC(CC)(CC(=O)Nc1cccc(/C=C/c2nc(C3CCC3)cs2)c1)C(=O)O | > 30 µM
C=CCN1C[C@H](C(=O)N(CCCN(C)C)C(=O)NCC)C[C@@H]2c3cccc4[nH]cc(c34)C[C@H]21 | > 10 µM
c1ccc([C@H]2CN3CCSC3=N2)cc1 | > 30 µM
CCC1(CC)C(=O)NCC(C)C1=O (stereo not drawn) | > 30 µM
CCCc1nc(C(C)(C)O)c(C(=O)OCc2oc(=O)oc2C)n1Cc1ccc(-c2ccccc2-c2nnn[nH]2)cc1 | > 30 µM
C[C@]1(O)CC[C@H]2[C@@H]3CCC4=CC(=O)CC[C@]4(C)[C@@]3(F)[C@@H](O)C[C@@]21C | > 10 µM

* * *

For reference, AC50 measured on 5-hydroxytryptamine receptor 2B (Homo sapiens, UniProt P41595):

compound | AC50
Cn1nnc2c(C(N)=O)ncn2c1=O [TEMOZOLOMIDE] | > 10 µM
CCCN1C[C@H](CSC)C[C@@H]2c3cccc4[nH]cc(c34)C[C@H]21 [PERGOLIDE] | 0.0205 µM
CCOc1ccccc1OCC1CNCCO1 (configuration not stated) | 2.34 µM
Cc1c(C(=O)NN2CCCCC2)nn(-c2ccc(Cl)cc2Cl)c1-c1ccc(Cl)cc1 | > 10 µM
CCC(C)n1ncn(-c2ccc(N3CCN(c4ccc(OCC5COC(Cn6cncn6)(c6ccc(Cl)cc6Cl)O5)cc4)CC3)cc2)c1=O (configuration not stated) | > 10 µM
CCOC(=O)[C@H](CCc1ccccc1)N[C@@H](C)C(=O)N1[C@H](C(=O)O)C[C@@H]2CCC[C@@H]21 | > 10 µM
O=[N+]([O-])c1cn2c(n1)OC[C@@H](OCc1ccc(OC(F)(F)F)cc1)C2 | > 10 µM

* * *

# target-under-test: UniProt:Q01827
# Sequence (Q01827 whole entry): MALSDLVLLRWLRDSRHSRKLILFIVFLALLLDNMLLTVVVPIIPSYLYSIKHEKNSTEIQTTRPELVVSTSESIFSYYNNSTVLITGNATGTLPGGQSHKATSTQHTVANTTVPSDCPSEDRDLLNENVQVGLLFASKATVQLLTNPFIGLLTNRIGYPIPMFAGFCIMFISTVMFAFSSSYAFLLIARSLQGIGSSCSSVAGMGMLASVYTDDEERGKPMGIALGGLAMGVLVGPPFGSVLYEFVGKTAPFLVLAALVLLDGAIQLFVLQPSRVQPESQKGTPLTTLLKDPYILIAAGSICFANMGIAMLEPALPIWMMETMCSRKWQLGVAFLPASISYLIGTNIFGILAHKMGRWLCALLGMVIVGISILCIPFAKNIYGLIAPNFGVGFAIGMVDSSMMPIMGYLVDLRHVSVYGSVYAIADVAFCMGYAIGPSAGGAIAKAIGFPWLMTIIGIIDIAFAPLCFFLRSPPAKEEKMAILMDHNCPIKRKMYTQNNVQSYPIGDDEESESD
# Type: functional

compound | AC50
CC[C@@H](C(N)=O)N1CCCC1=O | > 30 µM
CN(C)CC(c1ccc(O)cc1)C1(O)CCCCC1 (configuration not stated) [DESVENLAFAXINE] | > 30 µM
CO[C@H]1C[C@@H]2CC[C@@H](C)[C@@](O)(O2)C(=O)C(=O)N2CCCC[C@H]2C(=O)O[C@H]([C@H](C)C[C@@H]2CC[C@@H](O)[C@H](OC)C2)CC(=O)[C@H](C)/C=C(\C)[C@@H](O)[C@@H](OC)C(=O)[C@H](C)C[C@H](C)/C=C/C=C/C=C/1C [SIROLIMUS] | 23 µM
CCCCCCOc1nsnc1C1=CCCN(C)C1 [XANOMELINE] | 1.8 µM
O=C(CCNNC(=O)c1ccncc1)NCc1ccccc1 [NIALAMIDE] | > 30 µM
CC[C@H]1[C@@H](O)[C@@H]2[C@H](CC[C@]3(C)[C@@H]([C@H](C)CCC(=O)O)CC[C@@H]23)[C@@]2(C)CC[C@@H](O)C[C@@H]12 [OBETICHOLIC ACID] | > 30 µM
O=C(O)c1cc(O)ccc1O [GENTISIC ACID] | > 30 µM
